The entries below are paired with their reported T/C.
- System: P388 leukemia ip, CD2F1 mice, survival T/C
- protocol: NCI In Vivo Anticancer Drug Screen. Data for tumor model P388 Leukemia (intraperitoneal) in CD2F1 (CDF1) mice
- statedConditions: endpoint: median survival time; dose: 100.0 mg/kg/injection; schedule: Q01DX005 (ip); vehicle: saline with Tween-80; higher = longer survival
Inconclusive results and toxic doses are left out.

Consider the worked cases shown below.
CC(C)CN1CC(=O)N2CCCC(c3ccccc3)N2C(=O)C1 (stereo unspecified); 115 % of control
O=c1c(-c2ccc(O)cc2)coc2c(C3OC(CO)C(O)C(O)C3O)c(O)ccc12 (stereo unspecified); 101 % of control
O=C(Nc1ccccc1)Nc1c2c(nc3ccccc13)CCCCC2; 89 % of control
CCCCN(CCCC)CC(O)c1cc2ccccc2c2cc(Br)ccc12 (stereo unspecified); 102 % of control
COC1=CC(=O)C(C2OC(=O)C(Cl)=C2Cl)=CC1=O (stereo unspecified); 119 % of control

Could you now look at the following compound, please?
Recorded T/C for COC(=O)c1cc(=O)nc(N/N=C/c2cc(OC)ccc2OC)s1 on P388 leukemia ip, CD2F1 mice, survival T/C was 94 % of control
